# measured-on: Serine protease 1 (Homo sapiens, UniProt P07477)
# Sequence (P07477 whole entry): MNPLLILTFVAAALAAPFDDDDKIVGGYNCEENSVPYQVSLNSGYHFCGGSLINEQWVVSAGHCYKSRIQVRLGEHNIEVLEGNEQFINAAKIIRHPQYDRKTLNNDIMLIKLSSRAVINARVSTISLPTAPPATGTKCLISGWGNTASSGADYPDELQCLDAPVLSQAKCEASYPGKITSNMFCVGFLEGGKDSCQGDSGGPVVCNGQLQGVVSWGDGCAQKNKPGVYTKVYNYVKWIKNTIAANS
pKi: −log10 of the molar value.
metric: pKi

compound | measured-on | pKi
CC1(C(=O)Nc2ccc(-c3ccccc3S(N)(=O)=O)cc2)CC(c2cccc(C(=N)N)c2)=NO1 (stereo not drawn) | Serine protease 1 (Homo sapiens, UniProt P07477) | 6.92

P: N=C(N)c1cccc(C2=NOC(Cn3cnnn3)(C(=O)Nc3ccc(-c4ccccc4S(N)(=O)=O)cc3)C2)c1 (stereo not drawn)
Q: N=C(N)c1cccc(C2=NOC(C(=O)Nc3ccc(-c4ccccc4S(N)(=O)=O)cc3)C2)c1 (stereo not drawn)
Between P and Q , which one has the lower reported pKi value? Let me know the label of the one you choose.
Q
(Q: 7.08, P: 7.35)

###

# protocol-details: In vivo clearance (5 mg/kg) was determined in rabbits
# Type: ADME, organism-based, Oryctolagus cuniculus
# condition-info: rabbit
metric: clearance (mL/min/kg)

compound | measured-value
CCOCC1(C(=O)Nc2ccc(-c3ccccc3S(N)(=O)=O)cc2)CC(c2cccc(C(=N)N)c2)=NO1 (configuration not stated) | 8.17
N=C(N)c1cccc(C2=NOC(Cn3cnnn3)(C(=O)Nc3ccc(-c4ccccc4S(N)(=O)=O)cc3)C2)c1 (configuration not stated) | 5
N=C(N)c1cccc(C2=NOC(CC(=O)O)(C(=O)Nc3ccc(-c4ccccc4S(N)(=O)=O)cc3)C2)c1.O=C(O)C(F)(F)F (configuration not stated) | 4.67

P: COC(=O)CC1(C(=O)Nc2ccc(-c3ccccc3S(N)(=O)=O)cc2)CC(c2cccc(C(=N)N)c2)=NO1.O=C(O)C(F)(F)F (configuration not stated)
Q: N=C(N)c1cccc(C2=NOC(Cn3cnnn3)(C(=O)Nc3ccc(-c4ccccc4S(N)(=O)=O)cc3Cl)C2)c1.O=C(O)C(F)(F)F (configuration not stated)
R: N=C(N)c1cccc(C2=NOC(Cn3cnnn3)(C(=O)Nc3ccc(-c4ccccc4S(N)(=O)=O)cn3)C2)c1 (configuration not stated)
S: CCOCC1(C(=O)Nc2ccc(-c3ccccc3S(N)(=O)=O)cn2)CC(c2cccc(C(=N)N)c2)=NO1 (configuration not stated)
Ordering: ascending clearance. Response format: the labels, sorted as the prompt asks.
P, R, Q, S
(P: 3.5 mL/min/kg, R: 8.33 mL/min/kg, Q: 13.3 mL/min/kg, S: 21.7 mL/min/kg)

###

Consider molecules characterized by their Ki with Prothrombin (Homo sapiens, UniProt P00734).
metric: Ki (µM)

molecule | metric | unit-string | measured-value
CCOCC1(C(=O)Nc2ccc(-c3ccccc3S(N)(=O)=O)cn2)CC(c2cccc(C(=N)N)c2)=NO1 (stereo unspecified) | Ki | µM | 5
N=C(N)c1cccc(C2=NOC(C(=O)Nc3ccc(-c4ccccc4S(N)(=O)=O)cc3)(C(F)(F)F)C2)c1 (stereo unspecified) | Ki | µM | 6.1
N=C(N)c1cccc(C2=NOC(Cn3cnnn3)(C(=O)Nc3ccc(-c4ccccc4S(N)(=O)=O)cc3Cl)C2)c1.O=C(O)C(F)(F)F (stereo unspecified) | Ki | µM | 0.3

A: N=C(N)c1cccc(C2=NOC(Cn3cnnn3)(C(=O)Nc3ccc(-c4ccccc4S(N)(=O)=O)cc3)C2)c1 (stereo unspecified)
B: N=C(N)c1cccc(C2=NOC(Cn3cnnn3)(C(=O)Nc3ncc(-c4ccccc4S(N)(=O)=O)cn3)C2)c1 (stereo unspecified)
Between A and B , which one has the lower reported Ki value? Let me know the label of the one you choose.
A
(A: 0.9 µM, B: 3 µM)

###

# measured-on: UniProt P00734
# protocol-details: Binding affinity towards thrombin obtained from human purified enzymes
metric: Ki (nM)

molecule | metric | measured-value
CCOCC1(C(=O)Nc2ccc(-c3ccccc3S(N)(=O)=O)cc2)CC(c2cccc(C(=N)N)c2)=NO1 (centres undefined) | Ki | 3100

P: CCSCC1(C(=O)Nc2ccc(-c3ccccc3S(N)(=O)=O)cn2)CC(c2cccc(C(=N)N)c2)=NO1 (centres undefined)
Q: CNS(=O)(=O)c1ccccc1-c1ccc(NC(=O)C2(Cn3cnnn3)CC(c3cccc(C(=N)N)c3)=NO2)cc1 (centres undefined)
R: N=C(N)c1cccc(C2=NOC(Cn3cnnn3)(C(=O)Nc3ccc(-c4ccccc4S(N)(=O)=O)cc3)C2)c1 (centres undefined)
Order field: Ki | Direction: descending (largest first) Response format: the labels, sorted as the prompt asks.
P, R, Q

###

Consider compounds characterized by their pKi with UniProt P00742.
Sequence (P00742 41-179 limits assumed): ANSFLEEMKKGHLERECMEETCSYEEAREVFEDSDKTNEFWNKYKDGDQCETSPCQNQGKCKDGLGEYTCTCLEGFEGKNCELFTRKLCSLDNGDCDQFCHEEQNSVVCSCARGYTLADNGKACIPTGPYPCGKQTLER
Sequence (P00742 235-488 limits assumed): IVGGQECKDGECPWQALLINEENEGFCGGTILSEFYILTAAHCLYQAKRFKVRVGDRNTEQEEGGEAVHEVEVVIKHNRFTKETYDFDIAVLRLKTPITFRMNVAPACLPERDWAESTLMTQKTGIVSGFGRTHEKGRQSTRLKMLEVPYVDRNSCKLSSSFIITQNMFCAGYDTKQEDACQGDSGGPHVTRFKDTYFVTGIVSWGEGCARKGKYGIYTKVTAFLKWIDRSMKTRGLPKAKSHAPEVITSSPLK
pKi: −log10 of the molar value.
metric: pKi

Observe how each entry below is paired with its result.
compound | measured-on | pKi
CCS(=O)(=O)CC1(C(=O)Nc2ccc(-c3ccccc3S(N)(=O)=O)cn2)CC(c2cccc(C(=N)N)c2)=NO1 (centres undefined) | UniProt P00742 | 8.77
Cc1cc(-c2ccccc2S(N)(=O)=O)ccc1NC(=O)C1(Cn2cnnn2)CC(c2cccc(C(=N)N)c2)=NO1 (centres undefined) | UniProt P00742 | 9.00

a: CCOCC1(C(=O)Nc2ncc(-c3ccccc3S(N)(=O)=O)cn2)CC(c2cccc(C(=N)N)c2)=NO1 (centres undefined)
b: N=C(N)c1cccc(C2=NOC(CC(=O)O)(C(=O)Nc3ccc(-c4ccccc4S(N)(=O)=O)cc3)C2)c1.O=C(O)C(F)(F)F (centres undefined)
c: CC1(C(=O)Nc2ccc(-c3ccccc3S(N)(=O)=O)cc2)CC(c2cccc(C(=N)N)c2)=NO1 (centres undefined)
d: CNS(=O)(=O)c1ccccc1-c1ccc(NC(=O)C2(Cn3cnnn3)CC(c3cccc(C(=N)N)c3)=NO2)cc1 (centres undefined)
e: CCSCC1(C(=O)Nc2ncc(-c3ccccc3S(N)(=O)=O)cn2)CC(c2cccc(C(=N)N)c2)=NO1 (centres undefined)
Order field: pKi | Direction: descending (largest first) Response format: the labels, sorted as the prompt asks.
d, e, a, c, b

###

Consider compounds characterized by their Ki with Prothrombin (Homo sapiens, UniProt P00734).
metric: Ki (µM)

Observe how each entry below is paired with its result.
compound | measured-on | measured-value
CC1(C(=O)Nc2ccc(-c3ccccc3S(N)(=O)=O)cn2)CC(c2cccc(C(=N)N)c2)=NO1 (stereo unspecified) | Prothrombin (Homo sapiens, UniProt P00734) | 8.1
CCS(=O)(=O)CC1(C(=O)Nc2ccc(-c3ccccc3S(N)(=O)=O)cn2)CC(c2cccc(C(=N)N)c2)=NO1 (stereo unspecified) | Prothrombin (Homo sapiens, UniProt P00734) | 5.8
N=C(N)c1cccc(C2=NOC(Cn3cnnn3)(C(=O)Nc3ccc(-c4ccccc4S(N)(=O)=O)cn3)C2)c1 (stereo unspecified) | Prothrombin (Homo sapiens, UniProt P00734) | 1.1
COC(=O)CC1(C(=O)Nc2ccc(-c3ccccc3S(N)(=O)=O)cc2)CC(c2cccc(C(=N)N)c2)=NO1.O=C(O)C(F)(F)F (stereo unspecified) | Prothrombin (Homo sapiens, UniProt P00734) | 3.1

I: CC(C)COCC1(C(=O)Nc2ccc(-c3ccccc3S(N)(=O)=O)cc2)CC(c2cccc(C(=N)N)c2)=NO1 (stereo unspecified)
II: N=C(N)c1cccc(C2=NOC(Cc3ccccc3)(C(=O)Nc3ccc(-c4ccccc4S(N)(=O)=O)cc3)C2)c1 (stereo unspecified)
Between I and II , which one has the lower reported Ki value? Let me know the label of the one you choose.
II
(II: 1.3 µM, I: 3.9 µM)
